The values you see were collected from the supplement of paper PMC9170038.

system: K4 kissing-loop RNA reporter; test: apparent KD of K4 kissing-loop reporter; higher = weaker reporter binding; settings: Eterna round: R107; input ligand: arginine 13.2 mM;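 also: bound reporter read as fluorescence of individual clusters on recovered sequencing chips by microscopy, with normalized cluster intensities fitted with a binding model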
Test Readout: apparent KD of K4 kissing-loop reporter (nM)
// note: answer is a bare numeric in nM

Some solved entries appear below for comparison.
{"columns": ["Biopolymer Sequence", "apparent KD of K4 kissing-loop reporter, nM"],
 "data": [
  ["UUUGUAUAGGGAAGGAGCGUGAAUGAUAAAGAAUAUAGUGAUGUUAUAUAGAAGAAAGAAUCACAGGUAGGUCGCCCGGAGGAGG [SSArgB.H]", 491],
  ["UAGUGGUAGACCAGAUCUACCACUAGGGAUACCAGCCUCGGUCGAGGCCCUUGGCAGCCCAGCGGGUCCAGUGAUGUUGGAUGUC [Raanza]", 256],
  ["AGCCAUCACACGGCCGCCACUGAGUAGUGAUGUUGCUUGUAAAUCAGUCACCGCAUUAAUGCCGACAGGACCGGGUGCAUCGAGG [theeternabot_exclusion_KL_Trp_B_17]", 142]
]}

Shift focus to the following entry.
Any idea what apparent KD of K4 kissing-loop reporter was measured for UCCUGCUGUCAGCCACGAAAGUGGAUUGAUACCAGAGUCGAAAGACUCCCUUGGCAGCGAGUGAUGUUCGCAGCAGGUAAAUAAA [MatMod 3 - Jieux - Exclusion - Theophylline A] ? 257

---

tested on: MS2 coat protein; assay: apparent KD of MS2 coat protein, switch ON state; designed switch direction (-1 OFF switch, 1 ON switch): -1; higher = weaker reporter binding; conditions: FMN input: 0 or 200 uM; Eterna round: R93 (includes R88 designs)
# apparent KD of MS2 coat protein >= 30 nM gives Yes, anything below gives No

Known results for sequences:
{"columns": ["Biopolymer Sequence", "Category"],
 "data": [
  ["AACAGUACAGGAUAUACAUGAGGAUCACCCAUGUGAGAAACCAGUGGCGUACCACAAAGUAGAAGGGUACUGGA [Moding Maslow Revisited (73) 28]", "Yes"],
  ["AAGGGACAUGAGGAUCACCCAUGUCAGGAUAUCGGAAAAGGAAAAAAAAAAAAGAAGACGAGAAGGGACACCAA", "No"],
  ["CAGUACUGAGGAUAUACAUGAGGAUCACCCAUGUGGUCAAGCUAGGAAACUAGCAAAUGUAGAAGGCAGUACUG [Ex3: 812]", "Yes"],
  ["AUUAUGUCAGGAUAUCAGUAGUAAAAAAAAAAAAUUACUACUGAGAAGGGACAUGAGGAUCACCCAUGUCAAAA [EX4 308: Super Stable 8]", "Yes"]
]}

Lab note: next sequence to report on.
apparent KD of MS2 coat protein >= 30 nM for AACUGACAUGAGGAUCACCCAUGUCAGGAUAUGCUUCAUAAAAAGAAAUAAAAAUGAUGCAGAAGGGAUAUGGG [Design 34 :P Sub-opt 10] ? No

---

system: MS2 coat protein; test: apparent KD of MS2 coat protein; designed switch direction (-1 OFF switch, 1 ON switch): -1; higher = weaker reporter binding; details: input ligand: FMN 200 uM
Test Readout: apparent KD of MS2 coat protein (µM)
// note: answer is a bare numeric in µM

Some solved entries appear below for comparison.
{"columns": ["Biopolymer Sequence", "Test Readout", "Result Value"],
 "data": [
  ["AAAUAUCAUGUAGGAUAUGGUAGGCGAACCUUACCAGAAGGACAUGAGGAUCACCCAUGUGCUGAGUUGUCCGUAGACAGCUCU [Ex NG1 #4] (Eterna round: R96, puzzle: Exclusion NG 1)", "apparent KD of MS2 coat protein", 0.0741],
  ["AAAGUGCUGCGAGGAUAUACAUGAGGAUCACCCAUGUGGAUGUCUGAGGCAAAGCCUCAGACAAUGUAGAAGGCGCAGUACUAA [Mat - Exclusion NG 2 - Mod of JL - D56] (Eterna round: R96, puzzle: Exclusion NG 2)", "apparent KD of MS2 coat protein", 0.0873],
  ["AACAGUCUGGAGGAUAUGCUGGAUUAAUAUCUGGCAGAAGGCUUGACAUGAGGAUCACCCAUGUAAAUACUACC [Omei Ex6 A3] (Eterna round: R97, puzzle: Exclusion 6)", "apparent KD of MS2 coat protein", 0.0259],
  ["UACAUGAGGAUCACCCAUGUUUUGUCGUGUAUGGUAUUUAUCUAGGAUAUCAAUGUAUUUAAUUAUGAGAAGGAGAAUAUUAAU [JMF's solution 45] (Eterna round: R96, puzzle: Exclusion NG 3)", "apparent KD of MS2 coat protein", 0.0454],
  ["CUGCUCCGUGUAGGAUAUCGCCGCACCACCCGGCGAGAAGGACAUGAGGAUCACCCAUGUAUGUUAUUAUCACGUGUGGCGCGC [Design 40] (Eterna round: R96, puzzle: Exclusion NG 1)", "apparent KD of MS2 coat protein", 0.0176]
]}

Shift focus to the following entry.
Any idea what apparent KD of MS2 coat protein was measured for GUCGUGCAGCUUUGCUGUACGAGUACAUGAGGAUCACCCAUGUAGGAUAUGGUACGCUUUGCGUGCUAGAAGGAUAUGUGUAGC [salish99_ExNG3_r04_503] (Eterna round: R96, puzzle: Exclusion NG 3) ? 0.0448
